Quick list: pIC50 per entry.
System: MKN1 cells
protocolDetails: MKN1 CTG proliferation assay (120 h) (gastric cancer, wt amplified)
Format: cell-based
measurementParameters: Homo sapiens, MKN-1, assay 2, CTG 120 h, read-out: MKN1 (assay 2) IC50
Kindly note that pIC50 refers to -log10 of the concentration in mol/L and answer with the value alone.

Here are 3 molecules together with their reported answers.
Entry `CO[C@@H]1C[C@@H]([C@H](C)Oc2cc(N3CCN(C)C4(CC4)C3)nc(-c3onc4c3CCC[C@@]43CCCc4sc(N)c(C#N)c43)n2)N(C)C1` : reported pIC50 = ?
6.11

Entry `C[C@H](Oc1cc(-n2ccc(C(N)=O)n2)nc(-c2noc3c2CCC[C@@]32CCCc3sc(N)c(C#N)c32)n1)[C@@H]1CCCN1C` : reported pIC50 = ?
7.57

Entry `C[C@H](Oc1cc(N2CCNC3(COC3)C2)nc(-c2noc3c2CCC[C@@]32CCCc3sc(N)c(C#N)c32)n1)[C@@H]1C[C@@H](F)CN1C` : reported pIC50 = ?
7.49

Continuing:
Entry `C[C@H](Oc1cc(N2CCNC3(CC3)C2)nc(-c2noc3c2CCC[C@@]32CCCc3sc(N)c(C#N)c32)n1)[C@@H]1C[C@@H](F)CN1C` : reported pIC50 = ?
6.37

Entry `[2H]C([2H])([2H])N1C[C@H](F)C[C@H]1[C@H](C)Oc1cc(N2CCNC3(CC3)C2)nc(-c2noc3c2CCC[C@@]32CCCc3sc(N)c(C#N)c32)n1` : reported pIC50 = ?
6.35

Entry `C[C@H](Oc1cc(N2CCNC3(CC3)C2)nc(-c2onc3c2CCC[C@@]32CCCc3sc(N)c(C#N)c32)n1)[C@@H]1CCCN1C` : reported pIC50 = ?
6.30

Entry `CO[C@H]1CCN(C)[C@@H]1[C@H](C)Oc1cc(N2CCN(C)C3(CC3)C2)nc(-c2noc3c2CCC[C@@]32CCCc3sc(N)c(C#N)c32)n1` : reported pIC50 = ?
6.50

Entry `C[C@H](Oc1cc(N2CCN(C)C3(CC3)C2)nc(-c2onc3c2CCC[C@@]32CCCc3sc(N)c(C#N)c32)n1)[C@@H]1C[C@@H](F)CN1C` : reported pIC50 = ?
6.21

Entry `C[C@H](Oc1nc(-c2noc3c2CCC[C@@]32CCCc3sc(N)c(C#N)c32)nc(N2CCNC3(CC3)C2)c1F)[C@@H]1C[C@@H](F)CN1C` : reported pIC50 = ?
6.55

Entry `CO[C@H]1CCN(C)[C@@H]1[C@H](C)Oc1cc(N2CCNC3(CC3)C2)nc(-c2onc3c2CCC[C@@]32CCCc3sc(N)c(C#N)c32)n1` : reported pIC50 = ?
6.47

Entry `C[C@H](Oc1cc(-n2cc3ccn(C[C@H]4CCOC4)c(=O)c3n2)nc(-c2noc3c2CCC[C@@]32CCCc3sc(N)c(C#N)c32)n1)[C@@H]1CCCN1C` : reported pIC50 = ?
7.48

Ref: patent US20240174690A1
